assay: physchem; conditions: buffer, pH 7.4
Threshold rule: logD greater than or equal to 2 is Satisfied; below that, Not satisfied.

Sample answers from the record:
N#CC1(NC(=O)[C@@H]2CCCC[C@H]2C(=O)N2CCN(c3nc4c(s3)COCC4)CC2)CC1 = Not satisfied
N#CC1(NC(=O)[C@@H]2CCCC[C@H]2C(=O)N2CCN(c3nc4c(s3)CCC4)CC2)CC1 = Satisfied
N#CC1(NC(=O)[C@@H]2CCCC[C@H]2C(=O)N2CCN(c3nccs3)CC2)CC1 = Not satisfied
N#CC1(NC(=O)[C@@H]2CCCC[C@H]2C(=O)N2CCN(c3nc(C(F)(F)F)c(Cl)s3)CC2)CC1 = Satisfied
CC(C)(C#N)c1cnc(N2CCN(C(=O)[C@@H]3CCCC[C@H]3C(=O)NC3(C#N)CC3)CC2)s1 = Not satisfied

Query :: Item N#CC1(NC(=O)[C@@H]2CCCC[C@H]2C(=O)N2CCN(c3nc4ccccc4s3)CC2)CC1 with logD of 2 or above?
Result :: Satisfied

Query :: Same thing, different molecule: N#CC1(NC(=O)[C@@H]2CCCC[C@H]2C(=O)N2CCN(c3nc(C(F)(F)F)cs3)CC2)CC1
Result :: Satisfied

Query :: Same thing, different molecule: N#CC1(NC(=O)[C@@H]2CCCC[C@H]2C(=O)N2CCN(c3nc(-c4ccccc4)cs3)CC2)CC1
Result :: Satisfied

###

assay: Volume of distribution at steady state in Han Wistar rat at 1 mg/kg, iv and 2 mg/kg, po; type: ADME, organism-based; details: in vivo, read-out: Vdss
Below, each of the compounds is paired with its reported Vd value.
I only need the number, in L/kg, no unit after it.

# annotated cases, reported Vd shown
N#CC1(NC(=O)[C@@H]2CCCC[C@H]2C(=O)N2CCN(c3nc4cnccc4s3)CC2)CC1 = 0.8
CS(=O)(=O)c1ccc2nc(N3CCN(C(=O)[C@@H]4CCCC[C@H]4C(=O)NC4(C#N)CC4)CC3)sc2c1 = 0.54
N#CC1(NC(=O)[C@@H]2CCCC[C@H]2C(=O)N2CCN(c3nc4ccccc4s3)CC2)CC1 = 1.5

# next compound below
Query :: Which measured Vd value corresponds to N#CC1(NC(=O)[C@@H]2CCCC[C@H]2C(=O)N2CCN(c3nc4c(s3)COCC4)CC2)CC1 ?
Result :: 1.3

###

Below, each of the molecules is paired with its reported solubility value.
experiment: physchem; conditions: buffer, pH 7.4
I only need the number, in µM, no unit after it.

# annotated cases, reported solubility shown
N#CC1(NC(=O)[C@@H]2CCCC[C@H]2C(=O)N2CCN(c3nc(-c4ccccc4)cs3)CC2)CC1 = 96
CC1(C)COCc2sc(N3CCN(C(=O)[C@@H]4CCCC[C@H]4C(=O)NC4(C#N)CC4)CC3)nc21 = 1700
N#CC1(NC(=O)[C@@H]2CCCC[C@H]2C(=O)N2CCN(c3nccs3)CC2)CC1 = 3100
CC(C)(C#N)c1cnc(N2CCN(C(=O)[C@@H]3CCCC[C@H]3C(=O)NC3(C#N)CC3)CC2)s1 = 2600
CC(C)(C)c1csc(N2CCN(C(=O)[C@@H]3CCCC[C@H]3C(=O)NC3(C#N)CC3)CC2)n1 = 280

Query :: Which measured solubility value corresponds to N#CC1(NC(=O)[C@@H]2CCCC[C@H]2C(=O)N2CCN(c3nc4ccccc4s3)CC2)CC1 ?
Result :: 1000

The values you see were collected from ChEMBL document CHEMBL2069241.
